Exercise: for every item that follows, state its recorded % Blocking, NF-kB-Luc, non-anchored.
# TARGET_ENTITY: T1, human GITR (amino acids M1-V241, NCBI Accession #NP_004186.1) expressed on cells (human, UniProt Q9Y5U5 26-241)
# T1 sequence: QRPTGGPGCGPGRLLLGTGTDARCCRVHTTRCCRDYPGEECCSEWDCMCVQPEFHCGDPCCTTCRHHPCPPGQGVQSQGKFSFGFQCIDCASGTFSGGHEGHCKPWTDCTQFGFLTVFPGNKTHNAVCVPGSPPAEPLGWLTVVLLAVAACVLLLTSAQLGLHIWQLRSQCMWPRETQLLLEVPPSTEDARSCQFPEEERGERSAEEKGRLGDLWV
# METHOD_SUMMARY: cell-based or functional assay
Reply with the number and its unit after it.

// below: answered binders
H1H14512P (antibody, human IgG1, V domains shown, human IgG1 (H1H)) VH: QVQLVESGGGVVQPGRSLRLSCAVSGFTLSSYGMDWVRQAPGKGLEWVAVIWYDGSNKYYSDSVKGRFTISRDNSKNTLFLQMNSLRADDTAVYYCARDGELGLDYYSGMDVWGQGTTVTVSS VL: DIQMTQSPSSLSASVGDRVTITCRASQDIRNDLGWYQQKPGKAPKRLIYGASSLQSGVPSRFSGSGSGTEFTLTISSLQPEDFATYYCLQLNSYPRTFGQGTKVEIK | 100%
H1H14474P (antibody, human IgG1, V domains shown, human IgG1 (H1H)) VH: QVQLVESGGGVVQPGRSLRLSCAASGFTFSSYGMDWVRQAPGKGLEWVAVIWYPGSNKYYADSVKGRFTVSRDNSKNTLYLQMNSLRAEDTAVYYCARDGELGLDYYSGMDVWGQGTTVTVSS VL: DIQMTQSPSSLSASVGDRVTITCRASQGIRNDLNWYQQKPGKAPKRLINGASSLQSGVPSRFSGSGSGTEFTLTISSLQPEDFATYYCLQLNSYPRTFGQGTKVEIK | 80%

Switching to the query record.
Quick one: give measured % Blocking, NF-kB-Luc, non-anchored for H4H14469P (antibody, human IgG4, V domains shown, human IgG4 (H4H)) VH: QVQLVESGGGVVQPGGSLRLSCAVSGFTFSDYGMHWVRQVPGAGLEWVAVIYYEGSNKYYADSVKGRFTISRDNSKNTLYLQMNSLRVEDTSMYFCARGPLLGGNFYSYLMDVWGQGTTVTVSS VL: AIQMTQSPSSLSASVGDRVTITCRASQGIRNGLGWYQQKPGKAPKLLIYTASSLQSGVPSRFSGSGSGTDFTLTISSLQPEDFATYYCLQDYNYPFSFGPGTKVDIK
90%
